Target System: Acetylcholinesterase (Mus musculus)
Sequence (P21836 whole entry): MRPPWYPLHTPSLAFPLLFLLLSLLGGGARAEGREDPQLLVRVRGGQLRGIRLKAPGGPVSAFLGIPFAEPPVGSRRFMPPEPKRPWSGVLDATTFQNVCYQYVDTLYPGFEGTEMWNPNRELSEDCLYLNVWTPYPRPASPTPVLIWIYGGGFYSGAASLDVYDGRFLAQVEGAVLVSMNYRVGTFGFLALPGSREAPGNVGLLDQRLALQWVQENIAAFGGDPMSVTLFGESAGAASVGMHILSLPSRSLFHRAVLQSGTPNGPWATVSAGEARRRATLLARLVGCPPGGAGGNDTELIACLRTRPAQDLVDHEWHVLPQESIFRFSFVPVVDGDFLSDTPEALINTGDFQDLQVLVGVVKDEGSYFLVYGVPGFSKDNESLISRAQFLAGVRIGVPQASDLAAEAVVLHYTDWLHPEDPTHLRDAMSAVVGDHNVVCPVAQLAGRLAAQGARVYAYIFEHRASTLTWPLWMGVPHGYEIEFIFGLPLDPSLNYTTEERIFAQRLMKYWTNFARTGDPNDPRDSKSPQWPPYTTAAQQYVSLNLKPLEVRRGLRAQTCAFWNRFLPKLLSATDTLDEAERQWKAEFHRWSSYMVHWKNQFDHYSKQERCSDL
Parameter Measured: IC50 (µM)
Field: numeric (µM). Do not append units.

Provide IC50 value for the following compound: Nc1c2c(nc3ccccc13)C(O)CCC2 (stereo not drawn)
1.43

Provide IC50 value for the following compound: Nc1c2c(nc3ccccc13)CC(O)CC2 (stereo not drawn) [7-HYDROXYTACRINE]
1.21

Provide IC50 value for the following compound: Nc1c2c(nc3ccccc13)CCC(O)C2 (stereo not drawn)
4.82
